// data source = the DeepSol protein solubility set

assay: soluble on expression in E. coli; label from the status in PepcDB or PDB records
endpointName: soluble on expression in E. coli

| sequenceRecord | assayResult |
| --- | --- |
| MGSDKIHHHHHHMPQFSPSYSFPVQIYYEDTDFSGVVYHPNFLKYFERAREHVIGAEQLRNLWQQQQLGFAVYRSDMLCHEGVEFADIIDIRTKFYFESKYRTVWHQEIWRPNGKKPAVTATIEMVCMNQARQLAPMPAELITQLSLGM | not soluble |
| MAHHHHHHMTDIAHGSRYDRDAAISTAAEQVAAGQYAENKPRAIMFVNKRPVEIIPQEENVLEVLEREGITVPKFCYHPILSVAGNCRMCMVQVDGTQNIVVACSTVALPGMSIITDSRLVRDAREGNVELILINHPNDCPICEQATNCDLQNVSMNYGTDIPRYREDKKAVEDFYFDPQTRVVLNRCIHCTRCIRFLNEHAQDFNLGQIGRGGLSEISTFLDELEVKTDNNMPVSQLCPVGKLYMGDADENNDIVRELEAAGATA | not soluble |
| MAEKEHNPGNVKPNRSWTSVLGTKITFSEGLILNIEGYYKYIFNRMYIPVSIGLDDFDIRPQFNGEGRVWGIDLMLQKLQSRYWDGWLSYSYSWARYRDPSSGNATIGFSGGTRGNDWYFPNFHRFHNLNLVINIKPAPQFNFYTRFGLASGTQLPRRTTDRPATYPVFMFDDPETPGIPKFVQRYNWPSETDEDNRTTPTLSMDIKFSFFGKNRTGKTRYEIYFALENVLSLVYRPQGNTRFNTFTGVIETGSDAASYGLPIPIPSFGFKFSY | not soluble |
